Values were extracted from patent US20250179059A1.

Entries and their IC50
Biological target: human BRD4 bromodomain II (Homo sapiens, UniProt O60885)
Construct: human BRD4 bromodomain II [based on Genbank NM_058243, residues 349-460]; host or cells: E. coli
Experiment: Bromodomain binding assay (AlphaScreen), BRD4 BDII
Conditions: BRD4 BDII AlphaScreen assay; read-out: BRD4 BD2 IC50

Previously resolved entries follow.
{"columns": ["MOLECULE", "IC50"],
 "data": [
  ["CC(C)c1cc(-c2cc(F)cc(-c3cccc(N4CCN(C(C)(C)C)CC4)c3)c2O)cc(Cl)c1-n1ccn(C)c1=O [Example 934]", "> 100 nM"],
  ["Cn1ccn(-c2c(Cl)cc(-c3cc(F)cc(-c4cccc(N5CCN(C(C)(C)C)CC5)c4)c3O)cc2C2CC2)c1=O", "10 to 100 nM"],
  ["Cc1cc(-c2cccc(N3CCN(C(C)(C)C)CC3)c2)c(O)c(-c2ccc(-n3ccn(C)c3=O)c(Cl)c2)n1", "1 to 10 nM"],
  ["Cn1ccn(-c2ccc(-c3cc(F)cc(-c4ccccc4N4CCNCC4)c3O)cc2Cl)c1=O", "1 to 10 nM"],
  ["Cc1cc(-c2ccc(-n3ccn(C)c3=O)c(Cl)c2)c(O)c(-c2cncc(N3CCN(C(C)(C)C)CC3)c2)n1", "1 to 10 nM"],
  ["Cc1cc(-c2ccc(-n3ccn(C)c3=O)c(C)c2)c(O)c(-c2cnc(C)c(N3CCN(C(C)(C)C)CC3)c2)n1", "1 to 10 nM"],
  ["Cc1cc(-c2ccc(-n3ccn(C)c3=O)c(Cl)c2)c(O)c(-c2cnnc(N3CCN(C(C)(C)C)CC3)c2)n1", "1 to 10 nM"],
  ["Cc1ncc(-c2cc(F)cc(-c3ccc(-n4ccn(C)c4=O)c(Cl)c3)c2O)cc1N1CC(C)(C)[C@@](C)(O)C1", "1 to 10 nM"]
]}

Given the entry `Cc1cc(-c2ccc(-n3ccn(C)c3=O)c(Cl)c2)c(O)c(-c2cc(N3CCN(C(C)(C)C)CC3)n(C)c(=O)c2)n1` , report its measured IC50.
1 to 10 nM

Queued: `Cc1cc(-c2ccc(-n3ccn(C)c3=O)c(Cl)c2)c(O)c(-c2cc(Cl)cc(N3CCN(C(C)(C)C)CC3)c2)n1`
1 to 10 nM

Moving on to CNc1ncc(-c2nc(C)cc(-c3ccc(-n4ccn(C)c4=O)c(Cl)c3)c2O)cc1N1CCC2(CCN2C(C)C)C1 (stereo not drawn)
1 to 10 nM

Field entry: `COc1ncc(-c2cc(F)cc(-c3ccc(-n4ccn(C)c4=O)c(Cl)c3)c2O)cc1N1CC(F)(F)[C@](C)(O)C1`
0.01 to 1 nM

# repeat for `Cn1ccn(-c2ccc(-c3ccnc(-c4cccc(N5CCN(C(C)(C)C)CC5)c4)c3N)cc2Cl)c1=O`
1 to 10 nM

Param item: Cc1cc(-c2ccc(-n3ccn(C)c3=O)c(Cl)c2)c(O)c(-c2cc(N3CCN(C(C)(C)C)CC3)c3nccn3c2)n1 [Example 971]
0.01 to 1 nM

Queued: Cc1cc(-c2ccc(-n3ccn(C)c3=O)c(Cl)c2)c(O)c(-c2cnc(C)c(N3CCC4(CCN4C(C)C)C3)c2)n1 (stereo not drawn)
0.01 to 1 nM

Please give the result for `Cc1ncc(-c2cc(F)cc(-c3ccc(-n4ccn(C)c4=O)c(Cl)c3)c2O)cc1N1CCN(C2CCC2)CC1` too.
1 to 10 nM

One more molecule: `COc1ncc(-c2cc(F)cc(-c3ccc(-n4ccn(C)c4=O)c(Cl)c3)c2O)cc1N1CC[C@]2(CCN2C(C)C)C1`
0.01 to 1 nM

Moving on to `Cn1ccn(-c2ccc(-c3cc(F)cc(-c4cccc(-c5cccc(CO)c5)c4)c3O)cc2Cl)c1=O`
10 to 100 nM

Same lookup for `CNc1ncc(-c2nccc(-c3ccc(-n4ccn(C)c4=O)c(Cl)c3)c2O)cc1N1CCN(C(C)(C)C)CC1` , please.
1 to 10 nM

Also check COc1ncc(-c2cc(F)cc(-c3ccc(-n4ccn(C)c4=O)c(Cl)c3)c2O)cc1N1CCC2(CCN2C(C)C)C1 (stereo not drawn)
1 to 10 nM

Can you handle `Cc1cc(-c2ccc(-n3ccn(C)c3=O)c(Cl)c2)c(N)c(-c2cccc(N3CCN(C(C)(C)C)CC3)c2)n1` next?
1 to 10 nM

Next molecule up: `CC(C)(C)N1CCN(c2cccc(-c3nccc(-c4ccc(-n5cc[nH]c5=O)c(Cl)c4)c3O)c2)CC1`
10 to 100 nM

Proceed to `Cc1ncc(-c2cc(F)cc(-c3ccc(-n4ccn(C)c4=O)c(Cl)c3)c2O)cc1N1CC(F)(F)[C@@](C)(O)C1`
1 to 10 nM

Now the same for `Cn1ccn(-c2ccc(-c3cc(F)cc(-c4cc(N5CCN(C(C)(C)C)CC5)no4)c3O)cc2Cl)c1=O`
1 to 10 nM

Do the same for COc1ncc(-c2nc(C)cc(-c3ccc(-n4ccn(C)c4=O)c(Cl)c3)c2O)cc1N1CCC2(CCCN2C(C)C)C1 (stereo not drawn) please
0.01 to 1 nM

Follow-up entry: `[2H]C([2H])([2H])Oc1ncc(-c2cc(F)cc(-c3ccc(-n4ccn(C)c4=O)c(Cl)c3)c2O)cc1N1CCN(C(C)(C)C)CC1`
0.01 to 1 nM

Okay, and `Cc1nc(-c2cc(F)cc(-c3cccc(N4CCN(C(C)(C)C)CC4)c3)c2O)ccc1-n1ccn(C)c1=O` ?
> 100 nM

----------
Molecular target: human BRD4 bromodomain II (Homo sapiens)
Construct: human BRD4 bromodomain II [based on Genbank NM_058243, residues 349-460]; host or cells: E. coli
Assay: Bromodomain binding assay (AlphaScreen), BRD4 BDII
Details: AlphaScreen assay, Table C2; read-out: BRD4 BDII IC50
pIC50: −log10 of the molar value.
Each entry below lists one item and its recorded pIC50 value.

Solved entries (count: 8):
{"columns": ["COMPOUND", "pIC50"],
 "data": [
  ["CC(=O)Nc1ccc(-c2cccc(-c3cccc(N4CC5(CCNC5)CC4=O)c3)c2O)cc1F (centres unmarked)", "8.00 to 9.00"],
  ["CC(=O)N1CCCc2cc(-c3cccc(-c4cc(N5CCNCC5)no4)c3O)ccc21 [Example 36, 2,2,2-trifluoroacetate]", "< 7.00"],
  ["CC(=O)Nc1ccc(-c2cccc(-c3cccc(N4CCC(N)CC4)c3)c2O)cc1F [Example 159, 2,2,2-trifluoroacetate]", "7.00 to 8.00"],
  ["CCN1CCN(c2cc(-c3cc(F)cc(-c4ccc(-n5ccn(C)c5=O)c(Cl)c4)c3O)cc3[nH]ncc23)CC1", "9.00 to 11.00"],
  ["COc1cc(-c2cccc(-c3cc(Cl)c(N4CCCC4=O)c(Cl)c3)c2O)ccc1NC(C)=O", "< 7.00"],
  ["CC(=O)Nc1ccc(-c2cccc(-c3cccc(-c4ccnc(N)c4)c3)c2O)cc1F", "8.00 to 9.00"],
  ["COc1cc(-c2cccc(-c3ccc(NC(C)=O)c(F)c3)c2O)ccn1", "< 7.00"],
  ["CC(=O)Nc1ccc(-c2cccc(-c3ccc(C(F)(F)F)cc3)c2O)cc1F", "< 7.00"]
]}

Requested read-out: pIC50. Entry: `COc1cc(-c2ccnc(N3CCNCC3)c2)c(O)c(-c2ccc(N3CCN(C)C3=O)c(Cl)c2)c1`
8.00 to 9.00

Please answer likewise for `Cn1ccn(-c2ccc(-c3cc(F)cc(-c4ccnc(C5=CCCNC5)c4)c3O)cc2Cl)c1=O`
9.00 to 11.00

Also need `CC(=O)Nc1ccc(-c2cccc(-c3ccc4c(c3)CCCN4C(C)=O)c2O)cc1F` , thanks.
< 7.00

Can you handle `O=C1CCC(=O)N1c1ccc(-c2cccc(-c3cncc(N4CCNCC4)c3)c2O)cc1F` next?
< 7.00

Now give it for `CSc1cc(-c2cc(F)cc(-c3cnc(SC)c(N4CCN(C(C)C)CC4)c3)c2O)ccc1-n1ccn(C)c1=O` too.
< 7.00

Also need `Cn1ccn(-c2ccc(-c3cc(F)cc(-c4cnnc(N5CC[C@@](C)(O)C5)c4)c3O)cc2Cl)c1=O` , thanks.
9.00 to 11.00

Now consider `[2H]C([2H])([2H])n1ccn(-c2ccc(-c3cc(F)cc(-c4ccnc(N5CCC[C@H](N)C5)c4)c3O)cc2Cl)c1=O` and answer again.
9.00 to 11.00

Same read-out for `CN1CC2(C1)CN(c1cncc(-c3cc(F)cc(-c4ccc(-n5ccn(C)c5=O)c(Cl)c4)c3O)c1)C2` ?
8.00 to 9.00

Entry `CC(=O)NC1(C)CCN(c2cc(-c3cc(F)cc(-c4ccc(-n5ccn(C)c5=O)c(Cl)c4)c3O)ccn2)CC1` please
9.00 to 11.00

// query: `CNCc1n[nH]c2ccc(-c3cc(F)cc(-c4ccc(-n5ccn(C)c5=O)c(Cl)c4)c3O)cc12`
8.00 to 9.00

Repeat with `CC(=O)Nc1c(F)cc(-c2cccc(-c3cccc(N4CCNCC4)c3)c2O)cc1OC1CCC1`
8.00 to 9.00

One more compound: `CC(=O)Nc1ccc(-c2cccc(-c3cccc(N4CCNCC4)c3)c2O)cc1F`
8.00 to 9.00

Try this compound next: `CN[C@H]1CCN(c2cc(-c3cc(F)cc(-c4ccc(-n5ccn(C)c5=O)c(Cl)c4)c3O)cc3[nH]ncc23)C1`
8.00 to 9.00

What about `COc1cc(-c2cccc(-c3ccc(NC(C)=O)c(F)c3)c2O)cc(N2CCNCC2)n1` ?
7.00 to 8.00

Next entry: `CN1CCN(c2ccc(-c3cccc(-c4cncc(N5CC6(CNC6)C5)c4)c3O)cc2Cl)C1=O`
8.00 to 9.00
